# TEST: LTI-291-002 multiple ascending dose study: plasma and CSF pharmacokinetics
# Format: in vivo, human
# EXPERIMENTAL_CONTEXT: human, plasma, oral, 60 mg, 60 mg daily, dose 14, geometric mean; read-out: t½ (converted)
METRIC: half-life (h)
Report as a plain number; the unit h is understood.

Supply recorded half-life for CCCCCO[C@H]1CC[C@H](NC(=O)c2cnn3c(C)cc(C)nc23)CC1 here. 32.9

* * *

# TEST: LTI-291-001 single ascending dose study: plasma pharmacokinetics and food effect
# Type: in vivo, human
# EXPERIMENTAL_CONTEXT: human, plasma, po, 90 mg, 90 mg fasted, single oral dose, geometric mean
METRIC: Cmax (ng/mL)
Report as a plain number; the unit ng/mL is understood.

Supply recorded Cmax for CCCCCO[C@H]1CC[C@H](NC(=O)c2cnn3c(C)cc(C)nc23)CC1 here. 2640
